These data points were gathered from ChEMBL document CHEMBL1156975.

For each of the compounds below, state its IC50.
# study.target: Tyrosine-protein kinase JAK1 (Homo sapiens)
# Sequence (P23458 whole entry): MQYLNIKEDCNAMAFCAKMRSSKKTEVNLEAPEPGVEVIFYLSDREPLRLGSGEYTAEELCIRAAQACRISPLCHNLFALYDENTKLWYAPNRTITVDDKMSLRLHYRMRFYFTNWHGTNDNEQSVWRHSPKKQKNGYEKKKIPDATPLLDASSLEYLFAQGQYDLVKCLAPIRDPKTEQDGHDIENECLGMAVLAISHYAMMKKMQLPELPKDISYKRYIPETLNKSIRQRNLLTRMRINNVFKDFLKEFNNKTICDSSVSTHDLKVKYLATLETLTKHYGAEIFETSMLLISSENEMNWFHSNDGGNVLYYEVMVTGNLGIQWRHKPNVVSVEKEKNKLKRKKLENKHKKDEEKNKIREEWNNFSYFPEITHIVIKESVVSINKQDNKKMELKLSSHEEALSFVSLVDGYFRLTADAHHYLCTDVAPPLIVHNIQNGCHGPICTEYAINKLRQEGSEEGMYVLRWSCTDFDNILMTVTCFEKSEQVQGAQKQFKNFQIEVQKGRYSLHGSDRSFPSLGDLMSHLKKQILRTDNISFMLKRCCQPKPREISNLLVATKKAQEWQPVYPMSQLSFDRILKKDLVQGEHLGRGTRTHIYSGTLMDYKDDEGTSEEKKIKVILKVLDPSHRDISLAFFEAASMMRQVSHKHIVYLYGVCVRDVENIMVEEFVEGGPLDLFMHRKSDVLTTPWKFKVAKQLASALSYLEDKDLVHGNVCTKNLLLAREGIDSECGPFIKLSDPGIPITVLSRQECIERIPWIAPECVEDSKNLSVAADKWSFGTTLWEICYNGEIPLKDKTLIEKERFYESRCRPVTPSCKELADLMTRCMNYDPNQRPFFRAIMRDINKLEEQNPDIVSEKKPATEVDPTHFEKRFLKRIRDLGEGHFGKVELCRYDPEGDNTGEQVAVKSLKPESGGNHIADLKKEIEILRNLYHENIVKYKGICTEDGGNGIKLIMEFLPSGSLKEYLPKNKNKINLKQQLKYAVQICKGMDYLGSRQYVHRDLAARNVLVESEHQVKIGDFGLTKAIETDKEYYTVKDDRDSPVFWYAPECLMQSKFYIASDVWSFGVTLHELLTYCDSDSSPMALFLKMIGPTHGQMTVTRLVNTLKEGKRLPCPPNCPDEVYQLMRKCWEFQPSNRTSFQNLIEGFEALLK
# assay.protocol: Inhibition of recombinant GST tagged JAK1 protein after 60 mins using FITC-Ahx-KKSRGDYMTMQIG-NH2 substrate
# unit: nM | format: bare number

Return value of IC50 for input CN1CCN(c2ccc(-c3cnc4cccc(-c5cc(F)c(CN6CCS(=O)(=O)CC6)c(F)c5)c4n3)cn2)CC1 , no commentary.
82

Return value of IC50 for input COc1cc(-c2cnc3cccc(-c4ccc(CN5CCOCC5)cc4C)c3n2)cc(OC)c1OC , no commentary.
1200

Return value of IC50 for input COc1cc(-c2cnc3cccc(-c4ccc(CN5CCOCC5)c(F)c4)c3n2)cc(OC)c1OC , no commentary.
250

Return value of IC50 for input Cc1cc(-c2cnc3cccc(-c4ccc(CN5CCS(=O)(=O)CC5)cc4)c3n2)ccc1C(=O)N1CCN(C)CC1 , no commentary.
89

Return value of IC50 for input Cc1cc(-c2cnc3cccc(-c4cc(F)c(CN5CCOCC5)c(F)c4)c3n2)ccc1C(=O)N1CCOCC1 , no commentary.
60

Return value of IC50 for input COc1cc(-c2cnc3cccc(-c4ccc(CN5CCOCC5)cc4)c3n2)cc(OC)c1OC , no commentary.
1500

Return value of IC50 for input Cc1cc(-c2cccc3ncc(-c4ccc(C(=O)N5CCOCC5)c(C)c4)nc23)ccc1CN1CCOCC1 , no commentary.
362

Return value of IC50 for input COc1cc(-c2cnc3cccc(-c4ccc(CN5CCOCC5)c(C)c4)c3n2)cc(OC)c1OC , no commentary.
1850

Return value of IC50 for input Cc1cc(-c2cnc3cccc(-c4ccc(CN5CCOCC5)c(F)c4)c3n2)ccc1C(=O)N1CCOCC1 , no commentary.
190

Return value of IC50 for input COc1cc(-c2cnc3cccc(-c4ccc(CC(=O)N5CCS(=O)(=O)CC5)cc4)c3n2)cc(OC)c1OC , no commentary.
35

Return value of IC50 for input COc1cc(-c2cnc3cc(F)cc(-c4ccc(CC(=O)N5CCOCC5)cc4)c3n2)cc(OC)c1OC , no commentary.
940

Return value of IC50 for input COc1cc(-c2cnc3cccc(-c4ccc(CN5CCOCC5)cc4F)c3n2)cc(OC)c1OC , no commentary.
4700

Return value of IC50 for input COc1cc(-c2cnc3cccc(-c4ccc(CC(=O)N5CCOCC5)cc4)c3n2)cc(OC)c1OC , no commentary.
91

Return value of IC50 for input COc1cc(-c2cnc3cccc(-c4ccc(C(=O)N5CCOCC5)cc4)c3n2)cc(OC)c1OC , no commentary.
390

Return value of IC50 for input CN1CCN(c2ccc(-c3cnc4cccc(-c5cc(F)c(CN6CCOCC6)c(F)c5)c4n3)cc2)CC1 , no commentary.
28

Return value of IC50 for input COc1cc(-c2cnc3cccc(-c4ccc(CN5CCS(=O)(=O)CC5)cc4)c3n2)cc(OC)c1OC , no commentary.
98

Return value of IC50 for input CNS(=O)(=O)c1ccc(-c2cccc3ncc(-c4cc(OC)c(OC)c(OC)c4)nc23)cc1 , no commentary.
130

Return value of IC50 for input COc1cc(-c2cnc3cccc(-c4ccc(C(=O)N5CCOCC5)c(C)c4)c3n2)cc(OC)c1OC , no commentary.
460
